Recorded TGI values for a group of compounds are listed next.
Test system: SK-MEL-28 melanoma
assayOverview: NCI tumour cell line growth inhibition, 48 h
Answer in µM, number only, no unit symbol.

CN(CCNC(=O)c1nn(C)c2c1Cc1ccccc1-2)CCNC(=O)c1nn(C)c2c1Cc1ccccc1-2 : 30.9

q: Find the recorded TGI belonging to NP1(Oc2ccc(F)cc2)=NP(N)(Oc2ccc(F)cc2)=NP(Oc2ccc(F)cc2)(Oc2ccc(F)cc2)=N1 (stereo not given) and report it.
a: 25.2

* * *

Tested on: EKVX NSCLC
assayOverview: NCI tumour cell line growth inhibition, 48 h
recordedEndpoint: TGI

CCOC(=O)C(Oc1ccc(OC)c2c1C(=O)CCC2)c1ccccc1 (stereo unspecified) : > 100 µM
C=CCN(C(C)=O)c1cc(OCc2ccccc2)c2c(c1)c(C)cn2S(=O)(=O)c1ccccc1 : > 50.3 µM
CCn1c(=O)nc2n(-c3ccc(SC)cc3)c3ccccc3nc-2c1=O : > 100 µM
CCOC(=O)c1c(NS(=O)(=O)c2ccccc2)sc2c1CCCC2 : > 100 µM
CCCC(O)c1ccc2[nH]c3c(C)cc([N+](=O)[O-])c(C)c3c2c1 (stereo unspecified) : > 100 µM

Please examine the following record next.
q: Return reported TGI; argument: O=C(CC(C(=O)c1ccsc1)c1cccs1)c1cccs1 (stereo unspecified)
a: > 100 µM

* * *

Test system: CCRF-CEM leukemia
assayOverview: NCI tumour cell line growth inhibition, 48 h
recordedEndpoint: TGI

Below: 10 molecules and their reported TGI.
c1ccc(-c2cc(-c3ccccc3)nc(-c3ccncc3)c2)cc1 : > 100 µM
O=C1c2ccccc2CC12Cc1ccc3c(c1C2=O)CCCC3 (configuration not stated) : > 100 µM
CCCOC(=O)CCC(NC(=O)c1ccc(Nc2nc3ccccc3nc2-c2cccs2)cc1)C(=O)OCCC (configuration not stated) : > 100 µM
c1cc(CSP234N5CCN2CCN3CCN4CC5)cc(CSP234N5CCN2CCN3CCN4CC5)c1 : 62.3 µM
COc1cc(/C=N/NC(=O)c2cnn3c2NC(c2ccccc2)C3)ccc1OCc1ccccc1 (configuration not stated) : > 100 µM
CCN(CC)C(=O)N[C@@H](CC(C)C)C(=O)NC : > 100 µM
NN=C1/C(=C\c2ccccc2)CCC/C1=C/c1ccccc1 : 45 µM
O=C1N(c2ccc(Cl)cc2)C(=O)C2(SC=NN2Cc2ccccc2)N1c1ccc(Cl)cc1 (configuration not stated) : > 100 µM
Cc1cccc(NC(=S)NNC(=O)c2cc(-c3ccccc3)nc3ccccc23)c1 : 35.4 µM
CC(NC(CC12CC3CC(CC(C3)C1)C2)C(N)=O)c1ccccc1 (configuration not stated) : 41.9 µM

q: Please look up its TGI: O=C(CC(C(=O)c1ccsc1)c1cccs1)c1cccs1 (configuration not stated)
a: > 100 µM

q: Entry to check: O=C(NCC(O)COc1ccccc1)c1ccccc1O (configuration not stated)
a: > 100 µM

q: # repeat for O=C1C=C2SC3C[C@@]24CC1(O)[N+]1=c2c4c(c(O)c4c2=C(C=N4)CC1)N3
a: 2.03 µM

q: Entry to check: CN1CCN(Cc2ccc(NC(=O)c3cncc(C#Cc4c(N)ncc5ccccc45)c3)cc2C(F)(F)F)CC1
a: 1.47 µM

q: Let us now turn to O=C(/C=C/c1ccco1)Nc1ncc(Cc2cc(Cl)ccc2Cl)s1
a: > 100 µM

Entry source: PubChem BioAssay (NCI)
